Origin of the recorded values: patent US11395857B2

Experiment: Biodistribution of 68Ga-labeled peptide in mice bearing B16F10 mouse melanoma
Format: in vivo, C57BL/6J mice
Conditions: stomach, iv, total radioactivity, 1 h p.i. unblocked, C57BL/6J mice, B16F10 melanoma, read-out: Biodistribution, Stomach
attribute_measured: tissue uptake at 1 h (%ID/g)

{"compound": "CCCC[C@H](NC(=O)CN1CCC(NC(=O)CN2CCN(CC(=O)O)CCN(CC(=O)O)CCN(CC(=O)O)CC2)CC1)C(=O)N[C@H]1CC(=O)NCCCC[C@@H](C(N)=O)N(C)C(=O)[C@H](Cc2c[nH]c3ccccc23)N(C)C(=O)[C@H](CCCNC(=N)N)N(C)C(=O)[C@@H](Cc2ccccc2)NC(=O)[C@H](Cc2c[nH]cn2)N(C)C1=O [^68Ga-labeled CCZ01099, metal not drawn]", "reported_result": 0.26}
